target: SARS-CoV-2 wild-type (WT) receptor-binding domain (RBD) (SARS-CoV-2, wild type (Wuhan-Hu-1 …, UniProt P0DTC2)); experiment: ELISA; details: both partners purified
RECORDED_ENDPOINT: binding result

Consider the reported binding result for these binders:
AB6-17 (antibody, V domains shown) VH: QLQLQESGPGLVESSETLSLTCTVSSGSISRSTYYWGWIRQPPGKGMEWIGSISSGGSTYYNPSLNSRVTISIDTSKNQFSLKLRSVTAADTAVYYCARALQWPSPRIDYWAQGTLVTVSS VL: DIQMTQSPSSLSASVGDRVTITCRASQSISSYLNWYQHKPGKAPKLLIYAASSLESGVPSRFTGSGSGTDFTLTIDSLQPEDFATYYCQQSYSTPLFTFGPGTTVDIK : binds
AB5-20 (antibody, V domains shown) VH: QVQLVESGGGVVQPGRSLRLSCTASGFTFRHYGLHWVRQAPGKGLEWVAVILYDGSDEDYRDSVKGRFTISRDNSKNTLYLQMNSLRPEDTAVYYCAKQSGPYCSGGNCYSGHFDYWGQGTPVSVSS VL: DIQMTQSPSSLSASVGDRVTITCQASQDISKSLSWYEQKPGKAPRLLIFEASNLETGVPSRFSGSGSGTSFSFTISSLQPEDFATYYCQQYDNVPLTFGGGTKVERK : binds
AB5-5 (antibody, V domains shown) VH: QISLKESGPTLVQPTQTLTLTCTFSGFSLSSSGVGVGWIRQPPGKALEWLALLYWNDDKRYSPSLRTRLTITKDSSKNQVVLTMTNMDPMDTATYYCAHPRQTTVTTVFGLYPRPAAFDVWGPGTMVTVSS VL: QSFLTQPPSVSGAPGQRVTISCTGSSSNIGAGYGVDWYQQLPGTAPKLLIYDNNNRPSGVPDRFSGSTSGTSASLAITGLHAEDEADYYCQSYDRSLSGSVVFGGGTKLTVL : no binding
AB5-16 (antibody, V domains shown) VH: QALMVQSEAAVKKPGASVKVSCKATGDAFSNHYLHWLRQAPGQGLEWLGIINPGAGSTTYAQKFQGRLTVTTDTSTNTVYMELSSLRSDDTAVYYCARDGAFIPSSYYYGMDVWGQGTTVTVSS VL: EIVLTQSPGTLALSPGERATLSCRASQSVSSSYLAWYQQKPGQAPRLLIYGASSRATGVPDRFSGSGSGTDFTLTVSSLEPEDFAVYYCQQREAFGQGTKVEVK : binds

Now consider the entry below.
binding result lookup needed for AB5-12 (antibody, V domains shown) VH: QVQLQESGPGLVRPSQALSLTCTVSGGSISSEGYYWGWIRQHPGKGLEWIGYIYYTGNAYYNPSLQSRIDISVDTSANQFSLRLNSVTAADTAVYYCASDSFKGGFDSWGQGALVTVSS VL: EIVLTQSPTTLSLSPGERATLSCRASQTVSGSVAWYQQKPGQAPRLVIYDVSYRATGIPARFSGSGSGTDFTLTISSLEPEDFAVYYCQERRKAFGQGTTVEIK , thanks. no binding
